Ref: patent US12180193B2

The entries below are paired with their reported DC50.
# test.target: BRAF V600E (Homo sapiens, UniProt P15056, V600E)
# Construct: expressed in transfected cells
# Sequence (P15056 whole entry V600E): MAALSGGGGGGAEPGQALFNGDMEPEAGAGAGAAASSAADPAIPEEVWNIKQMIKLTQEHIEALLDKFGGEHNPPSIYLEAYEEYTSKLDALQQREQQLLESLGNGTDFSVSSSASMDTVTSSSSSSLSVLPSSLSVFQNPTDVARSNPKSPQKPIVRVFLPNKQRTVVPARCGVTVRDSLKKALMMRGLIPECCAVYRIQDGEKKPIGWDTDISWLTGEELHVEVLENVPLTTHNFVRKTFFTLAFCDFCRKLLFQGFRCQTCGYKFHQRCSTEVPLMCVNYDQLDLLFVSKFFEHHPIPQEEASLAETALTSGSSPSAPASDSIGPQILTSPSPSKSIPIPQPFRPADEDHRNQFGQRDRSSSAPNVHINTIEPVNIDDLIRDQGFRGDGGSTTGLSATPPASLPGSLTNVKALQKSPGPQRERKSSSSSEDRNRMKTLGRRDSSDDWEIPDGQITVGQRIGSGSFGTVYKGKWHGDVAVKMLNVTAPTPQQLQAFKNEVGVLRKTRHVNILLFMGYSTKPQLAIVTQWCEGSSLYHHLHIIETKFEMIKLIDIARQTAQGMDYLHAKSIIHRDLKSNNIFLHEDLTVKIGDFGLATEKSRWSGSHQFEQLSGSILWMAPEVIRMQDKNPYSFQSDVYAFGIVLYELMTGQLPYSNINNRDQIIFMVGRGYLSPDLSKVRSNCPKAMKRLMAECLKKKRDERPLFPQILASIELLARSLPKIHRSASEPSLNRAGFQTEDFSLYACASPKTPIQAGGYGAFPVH
# procedure.details: Cellular assay of target protein degradation, T-Rex 293 cells stably transfected with HA-BRAF_V600E (HA immunofluorescence, high content imaging)
# Type: cell-based
# assay.setup: half maximal degradation, T-Rex 293 HA-BRAF V600E; read-out: BRaf V600E DC50

// known answers, use as guide
O=C1CCC(N2Cc3cc(N4CCC(CN5CCN(Cc6ncc(-c7cnc8[nH]cc(C(=O)c9c(F)ccc(NS(=O)(=O)N%10CC[C@@H](F)C%10)c9F)c8c7)cn6)CC5)CC4)ccc3C2=O)C(=O)N1 (some centres unmarked) [Compound 153]    50 to 500 nM
O=C1CC[C@@H](N2Cc3cc(C[C@@H](O)CN4CCN(c5ccc(-c6cnc7[nH]cc(C(=O)c8c(F)ccc(NS(=O)(=O)N9CC[C@@H](F)C9)c8F)c7c6)cc5)CC4)ccc3C2=O)C(=O)N1 [Compound 73]    5 to 50 nM

Input line: Recorded DC50 of O=C1CCC(c2ccc(N3CC4(CN(CC5CCN(c6ccc(-c7cnc8[nH]cc(C(=O)c9c(F)ccc(NS(=O)(=O)N%10CC[C@@H](F)C%10)c9F)c8c7)cc6)CC5)C4)C3)cc2)C(=O)N1 (some centres unmarked) [Compound 368] , please.
Output line: 5 to 50 nM

Input line: Now the same for O=C1CCC(N2Cc3cc(N4CC5(CC(CN6CCCc7cc(-c8cnc9[nH]cc(C(=O)c%10c(F)ccc(NS(=O)(=O)N%11CC[C@@H](F)C%11)c%10F)c9c8)ccc76)C5)C4)ccc3C2=O)C(=O)N1 (some centres unmarked) [Compound 47]
Output line: > 500 nM

Input line: Now the same for COc1cc(N2CC3(CN(CCc4ccc(-c5cnc6[nH]cc(C(=O)c7c(F)ccc(NS(=O)(=O)N8CC[C@@H](F)C8)c7F)c6c5)cc4)C3)C2)ccc1C(=O)N[C@H]1CCC(=O)NC1=O [Compound 361]
Output line: 5 to 50 nM

====

# test.target: BRAF G466V (Homo sapiens, UniProt P15056, G466V)
# Construct: expressed in transfected cells
# Sequence (P15056 whole entry G466V): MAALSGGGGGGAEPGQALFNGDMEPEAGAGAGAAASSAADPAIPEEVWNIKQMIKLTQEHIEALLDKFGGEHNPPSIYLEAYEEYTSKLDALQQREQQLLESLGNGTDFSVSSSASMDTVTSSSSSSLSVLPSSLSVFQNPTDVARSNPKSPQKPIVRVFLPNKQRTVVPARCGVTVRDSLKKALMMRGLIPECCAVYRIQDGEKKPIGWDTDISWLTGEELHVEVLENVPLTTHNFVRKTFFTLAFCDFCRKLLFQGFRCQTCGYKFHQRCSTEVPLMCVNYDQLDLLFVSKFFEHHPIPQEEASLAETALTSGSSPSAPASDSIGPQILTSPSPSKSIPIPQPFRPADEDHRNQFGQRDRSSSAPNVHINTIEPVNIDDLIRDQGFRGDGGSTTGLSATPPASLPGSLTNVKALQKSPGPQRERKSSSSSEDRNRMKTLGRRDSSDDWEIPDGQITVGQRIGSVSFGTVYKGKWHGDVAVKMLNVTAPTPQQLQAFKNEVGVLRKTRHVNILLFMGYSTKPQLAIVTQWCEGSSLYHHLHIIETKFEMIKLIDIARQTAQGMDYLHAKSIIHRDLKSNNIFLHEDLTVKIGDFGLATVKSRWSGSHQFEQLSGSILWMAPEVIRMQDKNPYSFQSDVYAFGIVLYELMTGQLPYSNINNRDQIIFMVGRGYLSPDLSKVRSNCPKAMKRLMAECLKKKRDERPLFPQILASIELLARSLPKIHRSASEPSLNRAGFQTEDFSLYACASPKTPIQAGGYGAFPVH
# procedure.details: Cellular assay of target protein degradation, T-Rex 293 cells stably transfected with HA-BRAF G466V (HA immunofluorescence, high content imaging)
# Format: cell-based
# assay.setup: half maximal degradation, T-Rex 293 HA-BRAF G466V; read-out: BRaf G466V DC50
The entries below are paired with their reported DC50.

Input line: Recorded DC50 of O=C1CC[C@H](N2Cc3cc(CCCCN4CC5(C4)CN(c4ccc(-c6cnc7[nH]cc(C(=O)c8c(F)ccc(NS(=O)(=O)N9CC[C@@H](F)C9)c8F)c7c6)cc4)C5)ccc3C2=O)C(=O)N1 [Compound 62] , please.
Output line: < 1 nM

Input line: Now the same for O=C1CCC(N2Cc3cc(N4CC(CN5CCC(C6(c7ncc(-c8cnc9[nH]cc(C(=O)c%10c(F)ccc(NS(=O)(=O)N%11CC[C@@H](F)C%11)c%10F)c9c8)cn7)CC6)CC5)C4)ccc3C2=O)C(=O)N1 (some centres unmarked) [Compound 334]
Output line: 1 to 10 nM

Input line: Now the same for C[C@@]12CN(CC3CCN(c4ccc5c(c4)CN(C4CCC(=O)NC4=O)C5=O)CC3)C[C@]1(C)CN(c1ccc(-c3cnc4[nH]cc(C(=O)c5c(F)ccc(NS(=O)(=O)N6CC[C@@H](F)C6)c5F)c4c3)cc1)C2 (some centres unmarked) [Compound 2]
Output line: 10 to 30 nM

Input line: Now the same for COc1cc(OCCN2CCN(CCOc3ccc(-c4cnc5[nH]cc(C(=O)c6c(F)ccc(NS(=O)(=O)N7CC[C@@H](F)C7)c6F)c5c4)cc3)CC2)cc2c1C(=O)N([C@H]1CCC(=O)NC1=O)C2 [Compound 44]
Output line: < 1 nM

Input line: Now the same for C[C@@H]1CN(c2ccc(-c3cnc4[nH]cc(C(=O)c5c(F)ccc(NS(=O)(=O)N6CC[C@@H](F)C6)c5F)c4c3)cc2)C[C@H](C)N1CC1CN(c2ccc3c(c2)CN(C2CCC(=O)NC2=O)C3=O)C1 (some centres unmarked) [Compound 53]
Output line: < 1 nM
